The reported numbers originate from the supplement of paper PMC8728848.

target: Neu5Ac(a2-6)Gal(b1-3)GlcNAc(b1-3)[Gal(b1-4)GlcNAc(b1-6)]Gal(b1-4)Glc; assay: glycan array binding signal (z-score within array); higher = stronger binding; details: glycan notation: IUPAC condensed, linker removed
Many of the other results were omitted from the sample, so the strongest signals are more common in it than they were.
So I've got a bunch of binders here, and I need their glycan array binding signal (z-score) values.
No unit in the answer, only the number.

Q. Can you look up the measured glycan array binding signal (z-score) of Si Bti9 1b-HA (Solanum lycopersicum) (protein) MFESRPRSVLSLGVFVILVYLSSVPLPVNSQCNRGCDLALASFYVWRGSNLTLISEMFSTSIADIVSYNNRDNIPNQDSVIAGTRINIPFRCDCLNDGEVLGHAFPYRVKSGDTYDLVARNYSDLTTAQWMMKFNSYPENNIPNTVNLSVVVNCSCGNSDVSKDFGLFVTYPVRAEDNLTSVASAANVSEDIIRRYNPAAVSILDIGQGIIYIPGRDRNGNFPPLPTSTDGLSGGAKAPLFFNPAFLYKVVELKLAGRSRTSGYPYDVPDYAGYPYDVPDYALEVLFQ for me?
A. -0.236

Q. Need glycan array binding signal (z-score), item NPA (Narcissus pseudonarcissus), C0HM45 (protein) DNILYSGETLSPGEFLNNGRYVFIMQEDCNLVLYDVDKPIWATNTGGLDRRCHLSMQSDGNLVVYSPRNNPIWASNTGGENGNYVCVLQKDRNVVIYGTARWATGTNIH
A. -0.144

Q. Dear colleague, I am looking for the recorded glycan array binding signal (z-score) of the following binder: Nc3LysM (protein) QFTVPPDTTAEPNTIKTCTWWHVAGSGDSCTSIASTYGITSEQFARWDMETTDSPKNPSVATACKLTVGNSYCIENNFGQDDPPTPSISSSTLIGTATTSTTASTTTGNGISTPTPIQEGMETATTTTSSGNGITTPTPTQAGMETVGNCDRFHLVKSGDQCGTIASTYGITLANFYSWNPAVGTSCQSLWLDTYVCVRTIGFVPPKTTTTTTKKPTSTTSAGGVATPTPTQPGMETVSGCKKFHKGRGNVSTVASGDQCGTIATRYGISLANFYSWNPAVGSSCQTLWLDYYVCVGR
A. -0.162
